Please respond with reported growth inhibition for every item in the list.
Test: NCI Yeast Anticancer Drug Screen. Data for the sgs1 strain (AID 173);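 also: 0% = growth of vehicle-only control cultures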
Settings: S. cerevisiae sgs1 mutant, at 100.0 µM, hits give high values
Compounds without any hit were thinned out: in the full panel of roughly 79,000, 15% have a hit.
Give bare numbers, in %.

Solved cases below.
Q: Dear colleague, I am looking for the recorded growth inhibition of the following molecule: O=C1CC(=O)N(C2CCCCC2)C(=O)N1c1ccccc1S(=O)(=O)Oc1ccccc1
Result: 56

Q: What do you have for Nc1nc(F)nc2c1ncn2C1OC(COP(=O)(O)O)C(O)C1O (stereo unspecified) ?
Result: 53

Q: Another: CCOC(=O)CNC(=O)c1[nH]cnc1/N=N/N(C)C
Result: 98

Q: Now the same for Cc1cccc2c1N=C(C(F)(F)F)CC2=O
Result: 48

Q: CC(=O)C1(O)Cc2c(O)c3c(c(O)c2C(OC2CC(N)C(O)C(C)O2)C1)C(=O)c1ccccc1C3=O (stereo unspecified) ?
Result: 98

Please examine the following record next.
Q: What measured growth inhibition goes with COc1ccc(N=N/C(=N\NC(=O)c2cc(Br)ccc2O)c2ccc(N(CCC#N)CCC#N)cc2OC)cc1 ?
Result: 71

###

Assay: NCI Yeast Anticancer Drug Screen. Data for the sgs1 strain (AID 173);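 also: 0% = growth of vehicle-only control cultures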
Conditions: S. cerevisiae sgs1 mutant, at 11.0 µM
This is part of a sample that, as a whole, favours compounds with a hit. Of some 79,000 tested, about 15% had one in any assay. Active and inactive are the calls of the source. Rule as the data show it: active = growth inhibition above about 70%; inactive = the rest.
Form entry, call: pick from active, inactive

Past entries and their recorded results:
Q: What call does the record list for OCCNCCOc1ccc(/C(=C(/Cl)c2ccccc2)c2ccccc2)cc1 ?
Result: inactive

Q: And what about the compound O=NN(CCCl)C(=O)NCCCl ?
Result: inactive

Q: Could you do the same for O=C(O)c1ccccc1.[Ag] , please?
Result: active

Q: // next record S=P(N1CC1)(N1CC1)N1CC1
Result: inactive

Q: Try O=S1(=O)c2ccccc2N=C(c2ccccc2Cl)CC1c1ccc(F)cc1 (stereo not drawn) next.
Result: inactive

Others:
Q: Please indicate how the test categorized O=c1[nH]c2ccccc2c2nc3ccccc3n12 .
Result: inactive

Q: // next record CCc1nc(N)nc(N)c1-c1ccc(NCCCCCCN)c([N+](=O)[O-])c1
Result: inactive

Q: Now give it for CC(=O)Oc1ccc(N2C(=O)C3c4[nH]c5ccccc5c4C4CCC(C(C)(C)C)CC4C3C2=O)cc1 (stereo not drawn) too.
Result: active

Q: Follow-up entry: CC(=O)C1=C(O)C2(C)c3c(O)c(C)c(O)c(C(C)=O)c3OC2(Sc2ccccc2)CC1=O (stereo not drawn)
Result: inactive

Q: Please do the same for CC1=CC2C(C(C)C)CC1C1C(=O)OC(=O)C21 (stereo not drawn) as well.
Result: inactive

Q: Same question for CC1=CCC(C(C)(C)c2ccc(O)cc2)CC1 (stereo not drawn) please.
Result: inactive

Q: Same thing, different compound: O=C(O)c1[nH]c(=O)c2ccccc2c1Nc1ccccc1
Result: inactive

Q: Similarly, N#CSC1CCCCNC1=O (stereo not drawn) ?
Result: inactive

###

Assay: NCI Yeast Anticancer Drug Screen. Data for the sgs1 mgt1 strain (AID 161);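 also: 0% = growth of cultures given vehicle only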
Settings: S. cerevisiae sgs1 mgt1 strain, at 50.0 µM, hits give high values
Protocol: Growth inhibition of yeast strains with defined genetic alterations is measured as a screen for potential anti-cancer activity. Selected strains with alterations in DNA damage repair or cell cycle control were exposed to compounds and growth inhibition was measured relative to vehicle treated controls. The strain used in this assay is sgs1 mgt1
This is part of a sample that, as a whole, favours compounds with a hit. Of some 79,000 tested, about 15% had one in any assay.
Record form. Attribute: growth inhibition. Fill in for each entry.
One number for each entry, in %.

Reference set, count: 6
Q: Item O=C1C=CC(=Nc2ccccc2)c2ccccc21 has what recorded growth inhibition?
Result: 31.6

Q: Quick one: COc1cc(/C=C/c2sc3ccccc3[n+]2C)ccc1N(C)C
Result: 93.5

Q: Same lookup for O=C1CC(=O)N(C2CCCCC2)C(=O)N1c1ccccc1S(=O)(=O)Oc1ccccc1 , please.
Result: 54.4

Q: Then CC1CCC2(C(=O)O)CCC3(C)C(=CCC4C5(C)CC(O)C(O)C(C)(CO)C5C(O)CC43C)C2C1C (stereo not given) ?
Result: 78.7

Q: Same read-out for O=[N+]([O-])/C(C(Cl)=C(Cl)Cl)=C1/OCCS1 ?
Result: 90.6

Q: Now the molecule O=Nc1ccc(Nc2ccccc2)cc1
Result: 93.2

For each of the items listed, what is its growth inhibition?
1. O=S1(=O)c2ccccc2N=C(c2ccccc2Cl)CC1c1ccc(F)cc1 (stereo not given)
2. C=C(C)[C@@H]1CCc2c(O)c(O)c(=O)cc(C)c2C1
3. Nc1nc(N)c2c(n1)CCC(S(=O)(=O)c1ccc3ccccc3c1)C2 (stereo not given)
4. Cc1ccc(S(=O)(=O)N/N=C/C2(c3ccccc3)c3ccccc3-c3ccccc32)cc1
5. CCC(=O)N(c1ccccc1)C(C)CN1CCC(O)(c2cccc(C(F)(F)F)c2)CC1 (stereo not given)
6. Nc1cc(F)cc2c1-c1ccc(F)cc1C2
7. CCOC(=O)C1=C(C)NC(C)=C(C(=O)OCC)C1c1ccc(C)cc1

Result:
1: 61; 2: 92.8; 3: 36; 4: 33.8; 5: 68.2; 6: 77; 7: 91.8

###

Test: NCI Yeast Anticancer Drug Screen. Data for the sgs1 strain (AID 173);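 also: 0% = growth of vehicle-only control cultures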
Conditions: S. cerevisiae sgs1 mutant, at 11.0 µM, hits give high values
The panel holds about 79,000 compounds, 15% with a hit somewhere; the sample as a whole holds those more often. Activity calls are given as the source filed them. No stated cut-off is given here; in the data, active means growth inhibition above about 70%; inactive means the rest.
MEASURE: growth inhibition

Take a look at these entries with their results.
Q: Fill in: growth inhibition of COc1ccc(SCc2cc(OC)ccc2OC)cc1 is ___
Result: -2% (inactive)

Q: Note, next up: COC(=O)c1ccc2c(c1)Cc1ccccc1-2
Result: -1% (inactive)

Q: Query COC(=O)c1cccc(C)c1C(=O)c1c(C)cc(C)cc1C next
Result: 7% (inactive)

Q: Note, next up: NC(=O)N1c2ccccc2C=Cc2ccccc21
Result: -51% (inactive)

Q: What do you have for C/C=C/[P+](c1ccccc1)(c1ccccc1)c1ccccc1 ?
Result: 55% (inactive)

Could you report growth inhibition for every entry in the following list?
1. Clc1nc(C(Cl)Cl)nc2sc3c(c12)CCCC3
2. Cc1c2cc[n+](CCN3CCCCC3)cc2c(C)c2c1[nH]c1ccc(O)cc12
3. NC(N)=N/N=C/c1cc(Cl)cc(Cl)c1O
4. S=c1cn[nH]c2ccc(Br)cc12
5. CC(=O)c1cc2c(Cl)cc(Cl)cc2oc1=O

Result:
10% (inactive)
1% (inactive)
-1% (inactive)
-5% (inactive)
-29% (inactive)

Hi! Can you tell me growth inhibition for each of these compounds?
1. N#C/C(=C1C=C(Br)/C(=N\O)C=C\1Cl)c1cccc2ccccc12
2. CC(=O)N1C(=O)/C(=C\C(=O)c2ccc([N+](=O)[O-])cc2)c2ccccc21

Result:
82% (active)
66% (inactive)

###

Experiment: NCI Yeast Anticancer Drug Screen. Data for the mlh1 strain (AID 171);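 also: 0% = growth of vehicle-treated control cultures of the same strain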
Details: S. cerevisiae mlh1 strain growth inhibition; at 1.2 µM; hits give high values
About 79,000 compounds went through this panel and 15% of them were active in at least one assay; those are over-represented in the sample as a whole.
MEASURE: growth inhibition (%)
Give bare numbers, in %.

Example entries and their recorded answers appear below.
Q: Entry under review: N#C/C(=C/c1c(Cl)cccc1Cl)C(N)=O . Reported growth inhibition?
Result: -16

Q: Another: O=C1C=CC(=O)N1c1ccc(I)cc1
Result: 13

Q: Now consider N#CC(=S)Nc1cccc(Cl)c1 .
Result: 2

Q: Try this molecule next: N#Cc1sc2c(c1OC(=O)c1ccco1)c(=O)n(-c1ccccc1)c(=S)n2-c1ccccc1
Result: -4

Q: Another molecule to look at: COc1ccc(N2C(=O)CC(Cl)C2=O)cc1 (stereo unspecified)
Result: -14

Q: // query: OCCN(CCO)c1ccc2c(c1)Cc1ccccc1-2
Result: -13

Would you mind listing growth inhibition for each of the following molecules?
1. CC(=O)OCC1OC(O[C@H]2C=C[C@@H](C(=O)OCc3ccccc3)n3c(=O)n(-c4ccccc4)c(=O)n32)C(OC(C)=O)C(OC(C)=O)C1OC(C)=O (stereo partly specified)
2. Cc1cc(C(C)(C)CC(C)(C)C)cc(O)c1O

Result:
1. -17
2. 6

Report growth inhibition for each item below.
1. CCN1/C(=C/c2ccc3ccccc3[n+]2CC)C=Cc2ccccc21
2. CN(NC(=O)/C(=C/c1ccc(O)cc1)NC(=O)c1ccccc1)c1ccnc2cc(Cl)ccc12
3. N#C/C(=C1C=C/C(=N/O)c2ccccc2/1)c1ccccc1
4. CC(C)(O)c1ccccc1C(c1ccccc1)c1ccccc1
5. O=C1CC(=O)N(C2CCCCC2)C(=O)N1c1ccccc1S(=O)(=O)Oc1ccccc1

Result:
-27
1
-1
-3
-10

Value sought for every listed molecule: growth inhibition.
1. CNc1ccc(Cc2c[nH]c3ccccc23)cc1
2. CC[C@@]1(OC(=O)CCC(=O)O)C(=O)OCc2c1cc1n(c2=O)Cc2cc3ccccc3nc2-1
3. Cc1ccc(Nc2c3c(c(C#N)c4nc5ccccc5n24)CCCC3)cc1

Result:
1: -35; 2: -9; 3: -5

# return growth inhibition for each item in the list
1. Cc1ccc(S(=O)(=O)N/N=C/C2(c3ccccc3)c3ccccc3-c3ccccc32)cc1
2. COc1ccc2oc(-c3ccc(Cl)cc3)c(N3CCN(C)CC3)c2c1
3. O=C(Nc1ccc2c(c1)Cc1c-2ccc([N+](=O)[O-])c1F)C(F)(F)F
4. CCC(NC(C)c1ccccc1)C(=O)c1ccc(OCc2ccccc2)c(OCc2ccccc2)c1 (stereo unspecified)
5. Cc1cc(O)c2c(c1O)C(=O)C13C(=C2O)C(=O)C2C(O)C1C1C(O)C3C(=O)C3=C(O)c4c(O)cc(C)c(O)c4C(=O)C321 (stereo unspecified)

Result:
1: 21; 2: -2; 3: 5; 4: 5; 5: 18
